Biological target: T1, Human FGB-rCd4
T1 construct: Not the same construct as m1, which has the FBG at the C terminus; also called human TNC FBG-rCD4; human tenascin-C FBG-rCd4-His (FBG at the N terminus of the rat Cd4 tag); not shown: rat Cd4 (domains 3 and 4) tag, the C-terminal His6 tag and the vector-derived junction residues of pBIOCAM4
T1 chain: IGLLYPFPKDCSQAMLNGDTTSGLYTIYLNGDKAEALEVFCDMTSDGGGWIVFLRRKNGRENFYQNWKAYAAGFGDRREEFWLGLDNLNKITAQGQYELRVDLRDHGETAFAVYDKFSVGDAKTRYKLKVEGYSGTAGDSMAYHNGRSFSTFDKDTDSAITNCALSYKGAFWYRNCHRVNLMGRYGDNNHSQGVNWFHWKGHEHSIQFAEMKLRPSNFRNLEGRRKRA
Test: ELISA (DELFIA), antigen coated on the well, purified Fab at 50 nM, detected with anti-kappa or anti-lambda mAb and Europium-conjugated anti-mouse mAb
recorded-metric: binding result

{"binder": "Fab F3 (Fab, V domains shown, monomeric Fab) VH: EVQLLESGGGLVQPGGSLRLSCAASGFTFSSYGMHWVRQAPGKGLEWVAVISYDGSNKYYADSVKGRFTISRGNSKNTLYLQMNSLKAEDTAVYYCAREGYDQLFSAESNAFDIWGQGTLVTVSS VL: NFMLAQPHSVSESPGKTVTISCTRSSGSIASYFVQWFQQRPGSAPTAVIYEDNQRPSGVPDRFSGSIDSSSNSASLTISGLKTEDEADYYCQSYDSSNWVFGGGTKVTVLG", "recorded-metric": "binding result", "result": "binds"}
{"binder": "Fab 2A5 (Fab, V domains shown, monomeric Fab) VH: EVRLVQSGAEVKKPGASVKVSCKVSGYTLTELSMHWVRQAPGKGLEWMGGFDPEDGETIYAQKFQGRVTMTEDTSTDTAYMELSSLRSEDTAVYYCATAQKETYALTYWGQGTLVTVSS VL: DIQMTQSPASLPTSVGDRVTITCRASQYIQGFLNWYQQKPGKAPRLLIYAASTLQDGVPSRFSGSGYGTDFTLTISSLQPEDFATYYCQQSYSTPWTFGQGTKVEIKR", "recorded-metric": "binding result", "result": "binds"}
{"binder": "Fab D8 (Fab, V domains shown, monomeric Fab) VH: EVQLVQSGAEVKKPGASVKVSCKASGYTFTSYGISWVRQAPGQGLEWMGWISAYNGNTNYAQKLQGRVTMTTDTSTSTAYMELRSLRSDDTAVYYCARNQDSSSDYWGQGTLVTVSS VL: DIQMTQSPASLPTSVGDRVTITCRASQYIQGFLNWYQQKPGKAPKLLIYDASNLETGVPSRFSGSGSGTDFTLTISSLQPEDFATYYCQQSYSTLQTFGQGTKVDIKR", "recorded-metric": "binding result", "result": "binds"}
